Target Or System: human TLR8 (Homo sapiens (Human))
Sequence (Q9NR97 27-1041): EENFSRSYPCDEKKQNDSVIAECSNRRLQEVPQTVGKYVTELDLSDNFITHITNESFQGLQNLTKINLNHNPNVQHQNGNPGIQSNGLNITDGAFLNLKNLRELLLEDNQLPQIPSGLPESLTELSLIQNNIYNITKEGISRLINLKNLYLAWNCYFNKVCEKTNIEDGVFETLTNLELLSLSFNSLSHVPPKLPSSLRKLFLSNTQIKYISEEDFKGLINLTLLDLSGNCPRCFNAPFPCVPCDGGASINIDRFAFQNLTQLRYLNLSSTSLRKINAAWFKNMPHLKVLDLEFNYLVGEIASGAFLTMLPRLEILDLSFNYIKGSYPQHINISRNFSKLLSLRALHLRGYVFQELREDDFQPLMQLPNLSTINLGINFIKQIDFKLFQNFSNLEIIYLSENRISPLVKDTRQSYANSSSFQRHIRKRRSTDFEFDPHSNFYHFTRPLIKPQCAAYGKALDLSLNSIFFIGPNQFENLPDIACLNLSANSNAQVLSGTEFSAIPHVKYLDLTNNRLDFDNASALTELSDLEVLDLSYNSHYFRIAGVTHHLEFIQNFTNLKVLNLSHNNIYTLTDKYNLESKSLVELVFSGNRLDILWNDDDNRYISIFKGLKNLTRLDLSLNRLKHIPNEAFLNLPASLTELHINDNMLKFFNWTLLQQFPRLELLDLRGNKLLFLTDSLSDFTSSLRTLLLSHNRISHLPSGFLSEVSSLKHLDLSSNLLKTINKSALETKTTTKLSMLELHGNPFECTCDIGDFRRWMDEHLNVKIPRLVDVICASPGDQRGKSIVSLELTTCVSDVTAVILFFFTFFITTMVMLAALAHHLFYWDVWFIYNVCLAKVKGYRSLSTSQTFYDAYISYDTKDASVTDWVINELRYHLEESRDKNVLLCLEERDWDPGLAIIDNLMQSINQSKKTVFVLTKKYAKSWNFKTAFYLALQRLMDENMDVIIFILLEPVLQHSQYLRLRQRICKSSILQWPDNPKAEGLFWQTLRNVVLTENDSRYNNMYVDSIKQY
Test Details: HEK293 NFKB reporter assay, human TLR8
Recorded Conditions: HEK293 reporter cells expressing human TLR8; read-out: HEK293 hTLR8 EC50
Attribute Measured: EC50 (nM)

>>> recorded_measurement("CCCN(OCC)C(=O)C1=Cc2ccc(-c3ccc(C(=O)N4CCCC4)cc3)cc2N=C(N)C1 [CycBz-67]")
256
>>> recorded_measurement("CCCN(OCC)C(=O)C1=Cc2ccc(-c3cccc(S(=O)(=O)N4CC(CNC(=O)C5CCNCC5)C4)c3)cc2N=C(N)C1 [CycBz-51]")
4190
>>> recorded_measurement("CCCN(CCCNC(N)=O)C(=O)C1=Cc2ccc(-c3cccc(S(=O)(=O)N4CC(CN)C4)c3)cc2N=C(N)C1 [CycBz-70]")
9000
>>> recorded_measurement("CCCN(CCCO)C(=O)C1=Cc2ccc(-c3cccc(S(=O)(=O)N4CC(CN)C4)c3)cc2N=C(N)C1 [CycBz-63]")
3610
>>> recorded_measurement("CCCN(OCC)C(=O)C1=Cc2ccc(-c3ccc(C(=O)N4CCC[C@@H]4C(=O)OC)cc3)cc2N=C(N)C1 [CycBz-64]")
97
>>> recorded_measurement("CCCN(OCC(F)(F)F)C(=O)C1=Cc2ccc(-c3cccc(S(=O)(=O)N4CC(CN)C4)c3)cc2N=C(N)C1 [CycBz-49]")
461
>>> recorded_measurement("CCCN(OCC)C(=O)C1=Cc2ccc(-c3cc(CN)ncn3)cc2N=C(N)C1 [CycBz-48]")
2160
>>> recorded_measurement("CCCN(CCCCO)C(=O)C1=Cc2ccc(-c3cccc(S(=O)(=O)N4CC(CN)C4)c3)cc2N=C(N)C1 [CycBz-62]")
4660
>>> recorded_measurement("CCCN(CC1CNC(=O)CO1)C(=O)C1=Cc2ccc(-c3cnc(CN)nc3)cc2N=C(N)C1 (stereo not drawn) [CycBz-42]")
9000
>>> recorded_measurement("CCCN(OCC)C(=O)C1=Cc2ccc(-c3ccc(C(=O)N[C@H](C)C(=O)OC(C)(C)C)cc3)cc2N=C(N)C1 [CycBz-75]")
86
>>> recorded_measurement("CCCN(CCCO)C(=O)C1=Cc2ccc(-c3cccc(S(=O)(=O)N4CC(CNC(=O)OC(C)(C)C)C4)c3)cc2N=C(N)C1 [CycBz-58]")
374
>>> recorded_measurement("CCCN(OCC)C(=O)C1=Cc2ccc(-c3ccc(C(=O)N[C@@H](C)C(=O)OC(C)(C)C)cc3)cc2N=C(N)C1 [CycBz-74]")
12
>>> recorded_measurement("CCCN(OCC)C(=O)C1=Cc2ccc(-c3ccc(C(=O)OC)cc3)cc2N=C(N)C1 [CycBz-52]")
629
>>> recorded_measurement("CCCN(CCCNC(=O)OC1CCC1)C(=O)C1=Cc2ccc(-c3cccc(S(=O)(=O)N4CC(CN)C4)c3)cc2N=C(N)C1 [CycBz-65]")
1560
>>> recorded_measurement("CCCN(OCC)C(=O)C1=Cc2ccc(-c3ccc(C(=O)N4CCC[C@H]4C(=O)OC)cc3)cc2N=C(N)C1 [CycBz-59]")
6
